Below, each entry is listed alongside its reported melting point.
Where a name gives a salt, the structure may show the parent alone.
readout: melting point

[
  {
    "molecule": "COc1ccc(C2=NN(C3CCN(C(=O)CN4CCN(c5ccccc5OC)CC4)CC3)C(=O)CC2)cc1OC.Cl.Cl",
    "value": "109 to 110 °C"
  },
  {
    "molecule": "COc1ccc(C2=NN(C3CCN(S(=O)(=O)c4ccccc4F)CC3)C(=O)CC2)cc1OC [Compound 20]",
    "value": "198 to 199 °C"
  },
  {
    "molecule": "COc1ccc(C2=NN(C3CCN(C(=O)c4cccnc4)CC3)C(=O)CC2)cc1OC [Compound 24]",
    "value": "162 to 164 °C"
  },
  {
    "molecule": "COc1ccc(C2=NN(C3CCN(S(=O)(=O)c4ccccc4C#N)CC3)C(=O)CC2)cc1OC [Compound 18]",
    "value": "158 to 160 °C"
  },
  {
    "molecule": "COc1ccc(C2=NN(C3CCN(CC(=O)N4CCOCC4)CC3)C(=O)CC2)cc1OC (as salt: hydrochloride) [Compound 10]",
    "value": "145 to 148 °C"
  }
]
